# credit: paper PMC3130777

Target: CB1R (Mus musculus, UniProt P47746)
Construct: CB1Rs are endogenously expressed in abundant quantities in the CNS; from tissue; host or cells: whole brain of B6SJL mice, crude membrane homogenates
Sequence (P47746 whole entry): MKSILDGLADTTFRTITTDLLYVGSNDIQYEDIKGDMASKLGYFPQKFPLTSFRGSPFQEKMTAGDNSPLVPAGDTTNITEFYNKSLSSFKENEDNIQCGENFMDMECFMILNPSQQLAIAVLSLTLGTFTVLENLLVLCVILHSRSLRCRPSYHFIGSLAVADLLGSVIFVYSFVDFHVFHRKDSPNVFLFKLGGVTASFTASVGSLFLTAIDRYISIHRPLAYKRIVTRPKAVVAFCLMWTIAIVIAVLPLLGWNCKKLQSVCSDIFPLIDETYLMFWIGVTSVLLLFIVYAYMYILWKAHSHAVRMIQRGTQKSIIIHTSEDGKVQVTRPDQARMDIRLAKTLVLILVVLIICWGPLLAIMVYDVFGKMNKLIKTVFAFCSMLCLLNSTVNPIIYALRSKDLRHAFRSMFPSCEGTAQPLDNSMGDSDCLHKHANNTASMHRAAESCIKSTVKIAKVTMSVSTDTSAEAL
Test: biochemical
Format: binding
Settings: Affinity (Ki) for CB1Rs, competition against 0.2 nM [^3H]CP-55,940, mouse whole brain membrane homogenates, mean ± SEM, n = 3–4
Would you mind telling me the reported pKi of each entry?
Give bare numbers, as −log10 of the molar value.

Some compounds with recorded pKi:
- CCCCCn1cc(C(=O)c2cccc3ccccc23)c2cccc(O)c21 [M4]: 7.68
- O=C(c1cccc2ccccc12)c1cn(CCCCCO)c2ccccc12 [M5]: 7.60
- CCCCCn1cc(C(=O)c2cccc3ccccc23)c2ccc(O)cc21 [M3]: 7.76

Below: the item to evaluate.
(Q) Given the compound CCCCCn1cc(C(=O)c2cccc3ccccc23)c2cc(O)ccc21 [M2] , what is its reported pKi?
(A) 8.37

* * *

Target: CB1R (Mus musculus, UniProt P47746)
Construct: CB1Rs are endogenously expressed in abundant quantities in the CNS; from tissue; host or cells: whole brain of B6SJL mice, crude membrane homogenates
Test: biochemical
Assay type: binding
Conditions: competition against 0.2 nM [^3H]CP-55,940, mouse whole brain membrane homogenates, mean ± SEM, n = 3–4; read-out: Affinity (Ki) for CB1Rs
Measured metric: pKi
Numbers only, as −log10 of the molar value.

(Q) For CCCCCCC(C)(C)c1ccc([C@@H]2C[C@H](O)CC[C@H]2CCCO)c(O)c1 [CP-55,940, reference compound] , what is its reported pKi?
(A) 9.59

* * *

Molecular target: CB1R (Mus musculus)
Construct: CB1Rs are endogenously expressed in abundant quantities in the CNS; from tissue; host or cells: whole brain of B6SJL mice, crude membrane homogenates
Format: biochemical
Conditions: 10 µM, compared with full agonist CP-55,940
Measured metric: Agonist type at mCB1Rs (partial or full)

Solved entries (count: 5):
- CCCCCn1cc(C(=O)c2cccc3ccccc23)c2ccccc21: full
- CCCCCn1cc(C(=O)c2cccc3ccccc23)c2cccc(O)c21: partial
- O=C(c1cccc2ccccc12)c1cn(CCCCCO)c2ccccc12: full
- CCCCCn1cc(C(=O)c2cccc3ccccc23)c2c(O)cccc21: partial
- CCCCCn1cc(C(=O)c2cccc3ccccc23)c2ccc(O)cc21: full

Quick request: Agonist type at mCB1Rs (partial or full) for each listed item, please.
1. CCCCCn1cc(C(=O)c2cccc3ccccc23)c2cc(O)ccc21
2. CCCCCCC(C)(C)c1ccc([C@@H]2C[C@H](O)CC[C@H]2CCCO)c(O)c1 [CP-55,940, reference compound]

(A)
1: full; 2: full
